# credit: ChEMBL document CHEMBL3400038

Tested on: A549
Assay: Antiproliferative activity against human A549 cells after 48 hrs by SRB assay
Type: functional
Settings: A549, 48 h
Flag rule - GI50 less than 3000 nM flags class 1; the remaining entries get class 0.

*Q* Consider Cc1cc2c(cc1C)C(Cl)=C(c1nnc(-c3cccc(C(F)(F)F)c3)o1)CCC2 . Does its GI50 lie strictly below 3000 nM?
*A* class 1

*Q* Try the molecule ClC1=C(c2nnc(-c3cccc(I)c3)o2)CCCc2ccccc21
*A* class 1

*Q* Queued: Cc1ccc(-c2nnc(C3=C(Cl)c4ccccc4CCC3)o2)cc1
*A* class 0

*Q* Try the molecule COC(=O)Nc1nc2cc(C(=O)c3cccs3)ccc2[nH]1 [NOCODAZOLE]
*A* class 1

*Q* Entry to check: COc1cc(-c2nnc(C3=C(Cl)c4cc(C)c(C)cc4CCC3)o2)cc(OC)c1OC
*A* class 1
